System: P. gingivalis 33277
Format: cell-based, Porphyromonas gingivalis
Conditions: peptide 16 μM in TSB; mRNA relative to absence of peptides = 1 unit
Procedure: The half inhibitory concentration (IC50) was measured by conducting three independent experiments to determine mRNA levels of fimA, mfa1, rgpA/B, and kgp in the presence of peptide4 at the concentrations 0, 4, 16, and 64 μM, respectively. The IC50 for each gene was established using a Microsoft Excel program with add-in for curve fitting. […] RNA isolation and qPCR. […] The melting curve profile was analyzed to verify a single peak for each sample, which indicated primer specificity. […]
Items are presented alongside their recorded Relative expression level kgp.
Experimental Readout: Relative expression level kgp

sequence_entry="IRGRETKK (listed as Streptococcus cristatus) [P1, ArcA-derived peptide from residue 97, N-terminal domain]" quantitative_readout=1.06
sequence_entry="VYNREEDTRIEGGDEL (listed as Streptococcus cristatus) [P3, ArcA-derived peptide from residue 208, C-terminal domain]" quantitative_readout=0.99
sequence_entry="NHMFADTRNRE (listed as Streptococcus cristatus) [P2, ArcA-derived peptide from residue 177, N-terminal domain]" quantitative_readout=0.90
sequence_entry="ELVRGRGGPRCMSMPF (listed as Streptococcus cristatus) [P5, ArcA-derived peptide from residue 389, C-terminal domain]" quantitative_readout=0.96

---

tested on: P. gingivalis 33277; assay type: cell-based, Porphyromonas gingivalis; settings: lower efficiency than peptide4
Experimental Readout: inhibitory activity on virulence gene expression

sequence_entry="ELVRGRGGPRCMSMPF (listed as Streptococcus cristatus) [P5, ArcA-derived peptide from residue 389, C-terminal domain]" result="some inhibitory activity"
sequence_entry="VYNREEDTRIEGGDEL (listed as Streptococcus cristatus) [P3, ArcA-derived peptide from residue 208, C-terminal domain]" result="some inhibitory activity"
sequence_entry="NHMFADTRNRE (listed as Streptococcus cristatus) [P2, ArcA-derived peptide from residue 177, N-terminal domain]" result="some inhibitory activity"
sequence_entry="IRGRETKK (listed as Streptococcus cristatus) [P1, ArcA-derived peptide from residue 97, N-terminal domain]" result="some inhibitory activity"
